# Test system: MDA-MB-231 (ER negative) human breast cancer cells
# Assay Notes: MTS antiproliferative/cytotoxicity assay on MDA-MB-231 cells
# Format: cell-based
# Condition Info: Homo sapiens, MDA-MB-231, 72 h, 72 h; combination study Table 5B; read-out: IC50 MDA-MB-231 72 h
Test Readout: IC50 (µM)
Give the number; µM is assumed, so skip it.

// IC50 value for COc1cc(C(CO)C(c2ccc(O)c(OC)c2)c2ccc(O)c(OC)c2)ccc1O (stereo not shown) : 119

---

So I've got a bunch of molecules here, and I need their pIC50 values.
# Tested on: MCF-7 (estrogen receptor (ER) positive) human breast cancer cells
# Assay Notes: MTS antiproliferative/cytotoxicity assay on MCF-7 cells
# Condition Info: read-out: IC50 MCF-7 24 h; 24 h
Scale note: pIC50 = -log10(concentration in M).

// pIC50 value for COc1cc(C(O)c2ccc(OCc3ccccc3)c(OC)c2)ccc1OCc1ccccc1 : 3.79

// pIC50 value for COc1ccc(C(O)(c2ccc(OC)c(C=O)c2)c2ccc(OC)c(C=O)c2)cc1C=O : 4.01

// pIC50 value for COc1cc(C(CO)C(c2ccc(O)c(OC)c2)c2ccc(O)c(OC)c2)ccc1O (centres unmarked) [QUEBECOL SYNTHETIC] : 3.80

// pIC50 value for COc1ccc(C(O)(c2ccc(OC)c(F)c2)c2ccc(OC)c(F)c2)cc1F : 3.98

// pIC50 value for COC(=O)c1cc(C(O)(c2ccc(O)c(C(=O)OC)c2)c2ccc(O)c(C(=O)OC)c2)ccc1O : 3.71

// pIC50 value for COc1ccc(C(O)(c2ccc(OC)c(Cl)c2)c2ccc(OC)c(Cl)c2)cc1Cl : 3.72

// pIC50 value for COc1ccc(C(O)(c2ccc(OC)c(O)c2)c2ccc(OC)c(O)c2)cc1O : 3.70

// pIC50 value for COc1ccc(C(O)(c2ccc(OC)c(Br)c2)c2ccc(OC)c(Br)c2)cc1Br : 3.72

---

# System: MDA-MB-231 (ER negative) human breast cancer cells
# Assay Notes: MTS antiproliferative/cytotoxicity assay on MDA-MB-231 cells
# Assay type: cell-based
# Condition Info: Homo sapiens, MDA-MB-231, 72 h, 72 h treatment, mean ± S.D., vs DMSO 0.5% control; read-out: MDA-MB-231 IC50
So I've got a bunch of compounds here, and I need their IC50 values.

// IC50 value for COc1ccc(C(O)(c2ccc(OC)c(C=O)c2)c2ccc(OC)c(C=O)c2)cc1C=O : 17.5 to 24 µg/mL

// IC50 value for COc1cc(C(O)c2ccccc2OC)ccc1OCc1ccccc1 (stereo not shown) : 62.9 to 77.4 µg/mL

// IC50 value for COc1ccc(C(O)(c2ccc(OC)c(Cl)c2)c2ccc(OC)c(Cl)c2)cc1Cl : 62.9 to 77.4 µg/mL

// IC50 value for COc1cc(C(O)c2ccc(OCc3ccccc3)c(OC)c2)ccc1OCc1ccccc1 : 62.9 to 77.4 µg/mL
